Data credit: paper PMC7616177

Assay Text: Dog plasma and CSF exposure after subcutaneous dosing
Type: in vivo
Experimental Conditions: CSF, sc, aged beagle, 0.3 mg/kg s.c., 4 h post-dose, read-out: Measured Ccsf concentration
Measured Quantity: concentration at 4 h (nM)
Kindly provide the numeric value in nM only, without the unit symbol.

What value of concentration at 4 h has been recorded for this entry: CCOC(=O)N1CCC[C@H](N2CCC(C(=O)NC3(C)CCC3)CC2)CC1 [HTL9936]
13

---

Assay Text: Modified Irwin Functional Observation Battery
Assay type: in vivo
Experimental Conditions: plasma; rat, 100 mg/kg oral
Measured Quantity: Cmax (ng/mL)
Kindly provide the numeric value in ng/mL only, without the unit symbol.

What value of Cmax has been recorded for this entry: CCOC(=O)N1CCC[C@H](N2CCC(C(=O)NC3(C)CCC3)CC2)CC1
6400
